Experiment: Encapsulation efficiency and mRNA quantity by Ribogreen fluorescence plate assay
Type: physicochemical
Conditions: LNP with mRNA payload formulated with the lipid; 16.8/4.0/2.0/1.0; Lipids:mRNA 25:1; (total RNA - unencapsulated RNA)/total RNA
Quick list: EE % per entry.
Kindly answer with a numeric value in %, unit omitted.

Look over these answered cases.
| COMPOUND | MEASURED_QUANTITY | DATA_VALUE |
| --- | --- | --- |
| CCCCC/C=C\CCCOC(=O)CCN(CCCN(C)CCCN(CCC(=O)OCCC/C=C\CCCCC)CCC(=O)OCCC/C=C\CCCCC)CCC(=O)OCCC/C=C\CCCCC | EE % | 68 |
| CC(C)CCCCCCCCSSCCOC(=O)CCN(CCCN(C)CCCN(CCC(=O)OCCSSCCCCCCCCC(C)C)CCC(=O)OCCSSCCCCCCCCC(C)C)CCC(=O)OCCSSCCCCCCCCC(C)C [Lipid L0814] | EE % | 70 |
| CC(C)CCCCCCCCSSCCOC(=O)CCN(CCCN(C)CCCN(CCC(=O)OCCSSCCCCCCCCC(C)C)CCC(=O)OCCSSCCCCCCCCC(C)C)CCC(=O)OCCSSCCCCCCCCC(C)C [Lipid L0813] | EE % | 84 |
| CC/C=C\CCCC[Se]CCOC(=O)CCN(CCCN(C)CCCN(CCC(=O)OCC[Se]CCCC/C=C\CC)CCC(=O)OCC[Se]CCCC/C=C\CC)CCC(=O)OCC[Se]CCCC/C=C\CC | EE % | 62 |

We next turn to a different compound, shown below.
Lookup: Consider the compound shown here: CCCCCCC(CCCC)COC(=O)CCOC(=O)CCN(CCCN(C)CCCN(CCC(=O)OCCC(=O)OCC(CCCC)CCCCCC)CCC(=O)OCCC(=O)OCC(CCCC)CCCCCC)CCC(=O)OCCC(=O)OCC(CCCC)CCCCCC (centres unmarked) What is its recorded EE %?
Found: 94.6
